Each entry below carries its reported activation at 1 µM.
# SYSTEM UNDER TEST: Adrenergic β2 (H292 cells) (Homo sapiens, UniProt P07550)
# Construct: endogenous in cells; host or cells: H292 cells
# Sequence (P07550 whole entry): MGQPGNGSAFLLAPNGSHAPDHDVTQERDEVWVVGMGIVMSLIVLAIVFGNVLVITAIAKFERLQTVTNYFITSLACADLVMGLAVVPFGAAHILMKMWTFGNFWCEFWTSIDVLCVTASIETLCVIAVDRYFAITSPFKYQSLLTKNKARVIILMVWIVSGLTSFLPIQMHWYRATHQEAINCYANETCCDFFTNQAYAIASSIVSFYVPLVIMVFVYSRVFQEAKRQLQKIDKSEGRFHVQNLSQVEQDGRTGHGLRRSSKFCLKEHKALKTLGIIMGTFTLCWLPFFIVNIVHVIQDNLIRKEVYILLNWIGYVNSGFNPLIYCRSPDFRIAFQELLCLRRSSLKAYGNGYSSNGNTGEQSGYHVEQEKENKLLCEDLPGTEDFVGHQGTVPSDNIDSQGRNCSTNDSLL
# TEST PROTOCOL: Adrenergic β2 Mediated cAMP Production, single concentration 1 μM
# Assay type: cell-based
# MEASUREMENT PARAMETERS: NCI-H292, 1 μM compound, percentage of the maximum response generated by 1E-07M formoterol, read-out: β2 (% effect at 1 μM)
Number only, in %; omit the unit.

The cases that follow already have their activation at 1 µM on record.
| COMPOUND | NUMBER |
| --- | --- |
| Cc1cc(CC(=O)N2CCOC3(CCN(CCOc4ccc(CNC[C@H](O)c5ccc(O)c6[nH]c(=O)sc56)cc4)CC3)C2)on1 | 76 |
| O=C(c1csc(C2CCCC2)n1)N1CCOC2(CCN(CCCCCCCCCNC[C@H](O)c3ccc(O)c4[nH]c(=O)sc34)CC2)C1 | 93 |
| Cc1noc(C)c1CC(=O)N1CCOC2(CCN(Cc3cc(F)cc(CCNC[C@H](O)c4ccc(O)c5[nH]c(=O)sc45)c3)CC2)C1 | 100 |
| O=C(c1ccnn1-c1ccccc1)N1CCOC2(CCN(Cc3cc(F)cc(CCNC[C@H](O)c4ccc(O)c5[nH]c(=O)sc45)c3)CC2)C1 | 91 |

What measured activation at 1 µM is associated with O=C(c1ccc2ccccc2n1)N1CCOC2(CCN(Cc3cc(F)cc(CCNC[C@H](O)c4ccc(O)c5[nH]c(=O)sc45)c3)CC2)C1 on Adrenergic β2 (H292 cells) (Homo sapiens, UniProt P07550)?
100

Also O=C(COCc1ccccc1)N1CCOC2(CCN(CCCCCCCCCNC[C@H](O)c3ccc(O)c4[nH]c(=O)sc34)CC2)C1 ?
99

====

# SYSTEM UNDER TEST: Adrenergic β2 (H292 cells) (Homo sapiens, UniProt P07550)
# Construct: endogenous in cells; host or cells: H292 cells
# TEST PROTOCOL: Adrenergic β2 Mediated cAMP Production, single concentration 1 μM
# Type: cell-based
# MEASUREMENT PARAMETERS: 1 μM compound, percentage of the maximum response generated by 1E-07M formoterol
Each entry below carries its reported β2 (% effect at 1 μM).
Number only, in %; omit the unit.

The cases that follow already have their β2 (% effect at 1 μM) on record.
| COMPOUND | β2 (% effect at 1 μM) (%) |
| --- | --- |
| O=C(COc1ccc(O)cc1)N1CCOC2(CCN(Cc3cc(F)cc(CCNC[C@H](O)c4ccc(O)c5[nH]c(=O)sc45)c3)CC2)C1 | 86 |
| O=C(c1ccc(-c2ccccc2)cc1)N1CCOC2(CCN(Cc3cc(F)cc(CCNC[C@H](O)c4ccc(O)c5[nH]c(=O)sc45)c3)CC2)C1 [Example 171] | 86 |
| O=C(c1ccc(-c2ccccc2)cc1)N1CCOC2(CCN(Cc3cc(F)cc(CCNC[C@H](O)c4ccc(O)c5[nH]c(=O)sc45)c3)CC2)C1 [Example 145] | 53 |
| O=C(c1csc(C(F)(F)F)n1)N1CCOC2(CCN(CCOc3ccc(CNC[C@H](O)c4ccc(O)c5[nH]c(=O)sc45)cc3)CC2)C1 | 55 |
| O=C(c1ccc(-c2ccccc2)cc1)N1CCOC2(CCN(Cc3cc(F)cc(CCNC[C@H](O)c4ccc(O)c5[nH]c(=O)sc45)c3)CC2)C1 [Example 169] | 92 |

Next up:
Look up β2 (% effect at 1 μM) for this compound: Cc1cc(C(=O)N2CCOC3(CCN(CCOc4ccc(CNC[C@H](O)c5ccc(O)c6[nH]c(=O)sc56)cc4)CC3)C2)sc1C
74
